B1: ZNF193 (parent)
chain: QKRYHCKECGKVFSQSAGLIQHQR

- Variants of: B1
- MEASUREMENT NOTES: protein stability index of a GFP-peptide fusion (GPS, HEK-293T) (PSI 1-6); higher = more stable;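 also: lentivirally expressed fusions sorted by FACS into six bins by GFP to DsRed ratio, PSI derived from sequencing read proportions per bin multiplied by bin number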
- EXPERIMENTAL CONDITIONS: c terminus: a fixed tail appended
PROPERTY NAME: protein stability index

I'm hoping you can list protein stability index for every variant here, please.
1. S14D
2. Q21S
3. F13K

1: 3.47; 2: 2.47; 3: 2.25

# per-item lookup of protein stability index; items listed below
1. H22L
2. H5N
3. S14W
4. S16H
5. G18T
6. E8I
7. R3I
8. E8V

1. 1.75
2. 2.77
3. 2.08
4. 3.77
5. 2.65
6. 2.98
7. 3.55
8. 2.68

For the 6 variants below, give their protein stability index values.
1. C6D
2. C9Q
3. I20M
4. Q15G
5. S16D
6. V12E

3.05
3.19
2.86
2.8
2.47
3.23

Hi team, please reply with protein stability index for each item in this list.
1. Q23D
2. R3V
3. Q23F
4. A17K
5. A17H
6. S16M
7. S16G
8. I20V

[2.29, 3.2, 2.05, 3.09, 2.66, 3.72, 2.7, 3.22]
